- Tested on: CYP2D6
- ASSAY COMMENT: Metabolic stability in Silensome CYP2D6 (CYP2D6 contribution)
- Type: in vitro ADME, human
- CONDITION CONTEXT: human; Silensome CYP2D6 with NADPH; read-out: Intrinsic clearance (in vitro) Clint
PROPERTY: microsomal CLint at 1 µM (µL/min/mg)
Hi! Could you send only the number? It should be in µL/min/mg, unit omitted.

microsomal CLint at 1 µM of Cc1ccc(N)cc1C(=O)N[C@H](C)c1cccc2ccccc12 on CYP2D6?
31.2

---

- System: CYP2D6
- ASSAY COMMENT: Metabolic stability in Silensome CYP2D6 (CYP2D6 contribution)
- Format: in vitro ADME, human
- CONDITION CONTEXT: human
PROPERTY: half-life at 1 µM
Form entry: enter the amount, then its unit.

half-life at 1 µM of Cc1ccc(N)cc1C(=O)N[C@H](C)c1cccc2ccccc12 on CYP2D6?
22.3 min

Each recorded value in this set is attributed to paper PMC9975351.
